Source: patent US8716293B2

Test system: cryopreserved hepatocytes from Sprague Dawley rats
assay_remarks: metabolic stability in rat hepatocytes
Type: in vitro ADME
measurement_conditions: 1 μM, 15 min incubation, percentage turnover
Would you kindly list Rat (% TO) 15 min for each of these molecules?
Answers are plain numbers, in % TO.

Take a look at these entries with their results.
| given_smiles | target_or_test_system | quantity_kind | data_value |
| --- | --- | --- | --- |
| CCN1C[C@H](C)n2c(c(O)c3c(=O)n4nc(c32)N(C)S(=O)(=O)CCCCOCc2cc(F)ccc2C4)C1=O | cryopreserved hepatocytes from Sprague Dawley rats | Rat (% TO) 15 min | 65 |
| CC(C)N1C[C@H](C)n2c(c(O)c3c(=O)n4nc(c32)N(C)S(=O)(=O)CCCCOc2cc(F)ccc2C4)C1=O | cryopreserved hepatocytes from Sprague Dawley rats | Rat (% TO) 15 min | 20 |

Please examine the following record next.
Incoming: Test system cryopreserved hepatocytes from Sprague Dawley rats; read-out Rat (% TO) 15 min; what value for CCN1C[C@H](C)n2c(c(O)c3c(=O)n4nc(c32)N(C)S(=O)(=O)CCCCCOc2cc(F)ccc2C4)C1=O ?
Outgoing: 15
